The measured values listed here are drawn from patent US6656971B2.

Could you please report measured IC50 for the items listed next?
experimentalSystem: human recombinant CyPA (Homo sapiens, UniProt P62937)
Sequence (P62937 whole entry): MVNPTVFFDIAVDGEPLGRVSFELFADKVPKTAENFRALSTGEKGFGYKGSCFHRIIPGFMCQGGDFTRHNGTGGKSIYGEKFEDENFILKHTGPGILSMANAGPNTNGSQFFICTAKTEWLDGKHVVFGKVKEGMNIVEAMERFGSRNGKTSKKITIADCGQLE
methodDescription: Rotamase (PPIase) inhibition, chymotrypsin-coupled cuvette assay, human recombinant CyPA
Assay type: biochemical
appliedConditions: Table A, value without asterisk: human recombinant CyPA
Numeric answer only, unit nM assumed.

Recall and state the measured IC50 for "O=C(Nc1ccc(Cl)c(Cl)c1)c1cccc(COc2cc(C(=O)Nc3ccc(Cl)c(Cl)c3)cc(C(=O)Nc3ccc(Cl)c(Cl)c3)c2)c1" .
736

Recall and state the measured IC50 for "O=C(Nc1ccc(Cl)c(C(F)(F)F)c1)c1cccc(COc2cc(C(=O)Nc3ccc(Cl)c(C(F)(F)F)c3)cc(C(=O)Nc3ccc(Cl)c(C(F)(F)F)c3)c2)c1" .
1200

Recall and state the measured IC50 for "O=C(Nc1cccc([N+](=O)[O-])c1)c1ccc(Br)c(C(=O)Nc2cccc([N+](=O)[O-])c2)c1" .
1370

----------
experimentalSystem: recombinant rat CyPA-GST fusion protein (Rattus norvegicus, UniProt P10111)
Construct: made in house; host or cells: E. coli BL21
Sequence (P10111 2-164): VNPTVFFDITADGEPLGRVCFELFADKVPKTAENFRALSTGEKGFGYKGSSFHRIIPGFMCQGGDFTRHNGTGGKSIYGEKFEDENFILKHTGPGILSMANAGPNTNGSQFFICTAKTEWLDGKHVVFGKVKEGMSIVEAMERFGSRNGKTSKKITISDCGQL
methodDescription: Rotamase (PPIase) inhibition, chymotrypsin-coupled cuvette assay, rat CyPA-GST fusion protein
Assay type: biochemical
appliedConditions: Table A, value with asterisk: recombinant rat CyPA-GST fusion protein
Could you please report measured IC50 for the items listed next?
Numeric answer only, unit µM assumed.

Recall and state the measured IC50 for O=C(Nc1cccc(C(F)(F)F)c1)c1cc(OCc2ccc3ccccc3c2)cc(C(=O)Nc2cccc(C(F)(F)F)c2)c1 [Compound 42] .
0.23

Recall and state the measured IC50 for S=C(Nc1cc(Cl)cc(Cl)c1)Nc1ccc(N2CCCCC2)c(NC(=S)Nc2cc(Cl)cc(Cl)c2)c1 [Compound 44] .
0.374

Recall and state the measured IC50 for COc1ccc(NS(=O)(=O)c2cccc3ccccc23)cc1OCCc1cccc2ccccc12 [Compound 50] .
0.978

Recall and state the measured IC50 for COc1ccc(NC(=O)c2cccc3ccccc23)cc1OCc1cccc2ccccc12 [Compound 47] .
1.22

Recall and state the measured IC50 for O=C(Nc1cc(Cl)cc(Cl)c1)Nc1ccc(Br)c(N(S(=O)(=O)c2cc(Cl)cc(Cl)c2)S(=O)(=O)c2cc(Cl)cc(Cl)c2)c1 [Compound 29] .
10

Recall and state the measured IC50 for O=C(Nc1cc(OCc2cccc3ccccc23)ccc1Br)c1cccc(C(F)(F)F)c1 [Compound 34] .
12

Recall and state the measured IC50 for COc1ccc(NC(=O)Cc2cccc3ccccc23)cc1OCc1cccc2ccccc12 [Compound 48] .
1.19

Recall and state the measured IC50 for COc1ccc(NC(=O)Nc2cc(Cl)cc(Cl)c2)cc1OCc1cc(Cl)cc(Cl)c1 [Compound 28] .
0.914
